Biological target: Galanin receptor type 2 (Homo sapiens, UniProt O43603)
Sequence (O43603 whole entry): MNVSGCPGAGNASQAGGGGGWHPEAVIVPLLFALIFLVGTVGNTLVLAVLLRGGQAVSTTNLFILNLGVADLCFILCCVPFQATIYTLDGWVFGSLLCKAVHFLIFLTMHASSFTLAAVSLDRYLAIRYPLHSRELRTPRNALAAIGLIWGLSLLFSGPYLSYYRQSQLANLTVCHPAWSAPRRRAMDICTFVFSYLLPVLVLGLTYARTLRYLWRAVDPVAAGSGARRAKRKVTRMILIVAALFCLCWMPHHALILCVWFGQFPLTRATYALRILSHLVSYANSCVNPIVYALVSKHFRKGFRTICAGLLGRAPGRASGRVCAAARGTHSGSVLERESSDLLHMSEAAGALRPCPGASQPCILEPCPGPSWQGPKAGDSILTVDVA
Square brackets hold non-standard residues; d marks the D form. Peptide text beside a SMILES is read from it. * marks the point of attachment. Palmitoyl = CCCCCCCCCCCCCCCC(=O)*; Sar = CNCC(=O)O
measured.quantity: pKi
pKi is defined as minus the log10 of a concentration measured in mol/L.

These solved cases illustrate the format of a correct answer.
compound=CCCCCCCCCCCCCCCC(=O)NCCCC[C@H](NC(=O)[C@H](CCCCN)NC(=O)[C@@H]1CCCN1C(=O)CNC(=O)[C@H](CC(C)C)NC(=O)[C@H](CC(C)C)NC(=O)[C@H](Cc1ccc(O)cc1)NC(=O)CNC(=O)[C@H](C)NC(=O)[C@H](CO)NC(=O)[C@H](CC(N)=O)NC(=O)[C@H](CC(C)C)NC(=O)[C@@H](NC(=O)[C@H](Cc1c[nH]c2ccccc12)NC(=O)CNC)[C@@H](C)O)C(=O)N[C@@H](CCCCN)C(=O)N[C@@H](CCCCN)C(N)=O target_of_assay="Galanin receptor type 2 (Homo sapiens, UniProt O43603)" value_measured=7.55
compound="CCCCCCCCCCCCCCCC(=O)NCCCC[C@H](NC(=O)[C@H](CCCCN)NC(=O)[C@H](CCCCN)NC(=O)[C@H](CCCCN)NC(=O)[C@H](CCCCN)NC(=O)[C@H](CC(C)C)NC(=O)[C@H](CC(C)C)NC(=O)[C@H](Cc1ccc(O)cc1)NC(=O)CNC(=O)[C@H](C)NC(=O)[C@H](CO)NC(=O)[C@H](CC(N)=O)NC(=O)[C@H](CC(C)C)NC(=O)[C@@H](NC(=O)[C@H](Cc1c[nH]c2ccccc12)NC(=O)CNC)[C@@H](C)O)C(=O)N[C@@H](CCCCN)C(N)=O (H-[Sar]WTLNSAGYLLKKKKK(Palmitoyl)K-NH2)" target_of_assay="Galanin receptor type 2 (Homo sapiens, UniProt O43603)" value_measured=6.67

Qu. Could you tell me which pKi is on file for CCCCCCCCCCCCCCCC(=O)NCCCC[C@H](NC(=O)[C@H](CCCN=C(N)N)NC(=O)[C@H](CCCN=C(N)N)NC(=O)[C@@H]1CCCN1C(=O)CNC(=O)[C@H](CC(C)C)NC(=O)[C@H](CC(C)C)NC(=O)[C@H](Cc1ccc(O)cc1)NC(=O)CNC(=O)[C@H](C)NC(=O)[C@H](CO)NC(=O)[C@H](CC(N)=O)NC(=O)[C@H](CC(C)C)NC(=O)[C@@H](NC(=O)[C@H](Cc1c[nH]c2ccccc12)NC(=O)CNC)[C@@H](C)O)C(=O)N[C@@H](CCCN=C(N)N)C(N)=O ?
Ans. 7.18
